Data credit: patent US6391882B1

Counter-ions that a name gives are not always drawn.
# Lookup of reported melting point keyed by entry
OBSERVABLE: melting point

>>> print(df.to_string())
                                   molecule     observable         result
0  Fc1ccc2occ(CCN3CCN(c4cccc5[nH]ccc45)CC3)c2c1 (as salt: oxalate)  melting point  196 to 197 °C
1  COC(=O)c1cc(N2CCN(CCc3c[nH]c4ccccc34)CC2)c2cc[nH]c2c1 (as salt: oxalate)  melting point  213 to 216 °C
2  Fc1ccc2occ(CN3CCN(c4cccc5[nH]ccc45)CC3)c2c1 (as salt: hydrochloride)  melting point  238 to 240 °C
3  N#Cc1c[nH]c2cccc(N3CCN(CCc4c[nH]c5cc(Cl)ccc45)CC3)c12 (as salt: fumarate)  melting point  234 to 236 °C
4  Cc1oc2c(F)c(F)c(F)c(F)c2c1CCN1CCN(c2cccc3[nH]ccc23)CC1 (as salt: hydrochloride)  melting point  181 to 187 °C
5  c1cc(N2CCN(CCc3n[nH]c4ccccc34)CC2)c2cc[nH]c2c1 (as salt: oxalate)  melting point  149 to 151 °C
6  N#Cc1c[nH]c2cccc(N3CCN(CCc4coc5ccc(F)cc45)CC3)c12 (as salt: fumarate)  melting point  235 to 237 °C

###

molecular target: cloned human 5-HT1A receptors (Homo sapiens, UniProt P08908); construct: expressed in transfected cells; host or cells: HeLa cells (HA7); test: Inhibition of 3H-5-CT binding to human 5-HT1A receptors; details: cloned human 5-HT1A receptors in transfected HeLa cells (HA7), 15 minutes at 37° C., pH 7.7
OBSERVABLE: log10 IC50 (log10 of the value in nM)

>>> df
                            compound_string  numeric_value
0  N#Cc1c[nH]c2cccc(N3CCN(CCc4c[nH]c5ccccc45)CC3)c12           0.51
1  Clc1ccc2c(CCN3CC=C(c4cccc5[nH]ccc45)CC3)c[nH]c2c1           0.45
2  Clc1ccc2c(CCN3CCN(c4cccc5[nH]ccc45)CC3)c[nH]c2c1           0.53
3  N#Cc1c[nH]c2cccc(N3CCN(CCc4coc5ccccc45)CC3)c12           0.63
4  c1ccc2c(CCN3CCN(c4cccc5[nH]ccc45)CC3)c[nH]c2c1           0.84
5  OCc1cc(N2CCN(CCc3c[nH]c4ccc(F)cc34)CC2)c2cc[nH]c2c1           2.96

###

Biological target: cloned human 5-HT1A receptors (Homo sapiens)
Construct: expressed in transfected cells; host or cells: HeLa cells (HA7)
Sequence (P08908 1-422): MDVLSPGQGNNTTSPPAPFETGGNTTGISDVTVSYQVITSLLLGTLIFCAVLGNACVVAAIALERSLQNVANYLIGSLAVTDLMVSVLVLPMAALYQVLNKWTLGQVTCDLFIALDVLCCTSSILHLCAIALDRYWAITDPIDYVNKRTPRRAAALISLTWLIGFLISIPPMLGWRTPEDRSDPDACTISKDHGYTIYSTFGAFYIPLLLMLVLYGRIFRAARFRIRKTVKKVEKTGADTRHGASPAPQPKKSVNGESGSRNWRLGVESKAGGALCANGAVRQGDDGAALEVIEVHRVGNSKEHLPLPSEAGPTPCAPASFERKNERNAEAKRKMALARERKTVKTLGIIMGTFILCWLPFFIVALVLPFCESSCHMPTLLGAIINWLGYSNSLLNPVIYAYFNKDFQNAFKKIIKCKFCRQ
Assay: Inhibition of 3H-5-CT binding to human 5-HT1A receptors
Conditions: cloned human 5-HT1A receptors in transfected HeLa cells (HA7), 15 minutes at 37° C., pH 7.7
OBSERVABLE: log10 of IC50 (log10 of the value in µM)

>>> print(df.to_string())
                                    molecule  numeric_value
 0  c1ccc2c(CCCN3CCN(c4cccc5[nH]ccc45)CC3)c[nH]c2c1 [Compound 1f]          -2.01
 1  Fc1ccc2occ(CCCN3CC=C(c4cccc5[nH]ccc45)CC3)c2c1 [Compound 4s]          -1.80
 2  Fc1ccc2occ(CCCN3CCN(c4cccc5[nH]ccc45)CC3)c2c1 [Compound 1h]          -1.96
 3  COC(=O)c1cc(N2CCN(CCc3coc4ccc(F)cc34)CC2)c2cc[nH]c2c1 [Compound 4h]           0.49
 4  OCc1cc(N2CCN(CCc3c[nH]c4cc(Cl)ccc34)CC2)c2cc[nH]c2c1 [Compound 3b]          -0.92
 5  Brc1cccc2c(CCN3CCN(c4cccc5[nH]ccc45)CC3)c[nH]c12 [Compound 2i]          -2.27
 6  Cc1cccc2occ(CCN3CCN(c4cccc5[nH]ccc45)CC3)c12 [Compound 4r]          -2.00
 7  Cc1ccc2c(CCN3CCN(c4cccc5[nH]ccc45)CC3)coc2c1 [Compound 4u]          -2.15
 8  N#Cc1c[nH]c2cccc(N3CCN(CCc4c[nH]c5cc(Cl)ccc45)CC3)c12 [Compound 4o]          -2.54
 9  Fc1ccc2[nH]cc(CCN3CCN(c4cccc5[nH]ccc45)CC3)c2c1 [Compound 2c]          -1.57
10  Fc1ccc2occ(CCCCN3CCN(c4cccc5[nH]ccc45)CC3)c2c1 [Compound 1d]          -2.60
11  Cc1ccc2occ(CCN3CCN(c4cccc5[nH]ccc45)CC3)c2c1 [Compound 4q]          -1.68
12  Fc1ccc2[nH]cc(CCN3CC=C(c4cccc5[nH]ccc45)CC3)c2c1 [Compound 2h]          -1.96
13  Fc1ccc2occ(CN3CCN(c4cccc5[nH]ccc45)CC3)c2c1 [Compound 4l]          -0.48
14  Clc1ccc2occ(CCN3CCN(c4cccc5[nH]ccc45)CC3)c2c1 [Compound 4t]          -2.03
15  Cc1oc2c(F)c(F)c(F)c(F)c2c1CCN1CCN(c2cccc3[nH]ccc23)CC1 [Compound 1i]          -2.47
16  Clc1cccc2[nH]cc(CCN3CCN(c4cccc5[nH]ccc45)CC3)c12 [Compound 2b]          -1.96
17  c1cc(N2CCN(CCc3coc4ccccc34)CC2)c2cc[nH]c2c1 [Compound 1a]          -2.00
